experimental-target: T1, IL-2Rβ/γ-Fc heterodimer (IL-2Rβ-Fc-hole with IL-2Rγ-Fc-knob)
T1 construct: Co-expressed in HEK293 cells and purified with Protein A and Superdex 200
T1 sequence (chain, as listed by the source limits assumed, chain 1 of 2): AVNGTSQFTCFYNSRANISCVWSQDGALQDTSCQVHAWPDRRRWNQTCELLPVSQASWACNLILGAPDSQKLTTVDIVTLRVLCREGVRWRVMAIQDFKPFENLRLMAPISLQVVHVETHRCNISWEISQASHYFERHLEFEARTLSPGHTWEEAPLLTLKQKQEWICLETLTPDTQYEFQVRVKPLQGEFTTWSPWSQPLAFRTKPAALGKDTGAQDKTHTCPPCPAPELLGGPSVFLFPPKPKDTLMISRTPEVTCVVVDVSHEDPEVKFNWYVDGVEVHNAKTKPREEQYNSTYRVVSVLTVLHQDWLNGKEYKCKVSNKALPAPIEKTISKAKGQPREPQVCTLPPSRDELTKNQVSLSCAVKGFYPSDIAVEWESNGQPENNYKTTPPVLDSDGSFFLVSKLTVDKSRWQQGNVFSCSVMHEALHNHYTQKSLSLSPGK
T1 sequence (chain, as listed by the source limits assumed, chain 2 of 2): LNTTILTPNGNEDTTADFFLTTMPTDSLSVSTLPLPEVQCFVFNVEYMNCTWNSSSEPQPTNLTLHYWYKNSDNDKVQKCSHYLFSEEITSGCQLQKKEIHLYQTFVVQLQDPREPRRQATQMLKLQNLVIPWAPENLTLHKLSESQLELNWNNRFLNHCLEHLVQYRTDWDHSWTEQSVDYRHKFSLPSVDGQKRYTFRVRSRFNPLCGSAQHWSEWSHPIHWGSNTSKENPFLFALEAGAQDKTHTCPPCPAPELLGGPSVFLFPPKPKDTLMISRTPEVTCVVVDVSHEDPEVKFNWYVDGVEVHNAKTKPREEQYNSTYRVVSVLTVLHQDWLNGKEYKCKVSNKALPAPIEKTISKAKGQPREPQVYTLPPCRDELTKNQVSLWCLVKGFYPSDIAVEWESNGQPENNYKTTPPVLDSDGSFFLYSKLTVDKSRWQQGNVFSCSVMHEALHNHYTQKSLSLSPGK
test-description: SPR (Biacore), IL-2Rβ/γ-Fc captured on Protein A chip, 1:1 model
pKd: −log10 of the molar value.
Each entry below lists one item and its recorded pKd value.
recorded-metric: pKd

binder: IL-2-06 (… at positions 29-44 mutated into QSMHIDATL) (ligand, The entry already carries the replacement and C125A and begins with M. Made in E. coli) MAPTSSSTKKTQLQLEHLLLDLQMILNGIQSMHIDATLYMPKKATELKHLQCLEEELKPLEEVLNLAQSKNFHLRPRDLISNINVIVLELKGSETTFMCEYADETATIVEFLNRWITFAQSIISTLT
recorded-metric: pKd
value: 9.29
--
binder: IL-2-10 (N26Q/N30S/F42A/L72G) (ligand, The entry already carries the mutations and C125A and begins with M. Made in E. coli) MAPTSSSTKKTQLQLEHLLLDLQMILQGINSYKNPKLTRMLTAKFYMPKKATELKHLQCLEEELKPLEEVLNGAQSKNFHLRPRDLISNINVIVLELKGSETTFMCEYADETATIVEFLNRWITFAQSIISTLT
recorded-metric: pKd
value: 9.58
--
binder: IL-2-03 (Q11C/L132C) (ligand, The entry already carries the mutations and C125A and begins with M. Made in E. coli) MAPTSSSTKKTCLQLEHLLLDLQMILNGINNYKNPKLTRMLTFKFYMPKKATELKHLQCLEEELKPLEEVLNLAQSKNFHLRPRDLISNINVIVLELKGSETTFMCEYADETATIVEFLNRWITFAQSIISTCT
recorded-metric: pKd
value: 9.60
--
binder: IL-2-05 (G27C/F78C) (ligand, The entry already carries the mutations and C125A and begins with M. Made in E. coli) MAPTSSSTKKTQLQLEHLLLDLQMILNCINNYKNPKLTRMLTFKFYMPKKATELKHLQCLEEELKPLEEVLNLAQSKNCHLRPRDLISNINVIVLELKGSETTFMCEYADETATIVEFLNRWITFAQSIISTLT
recorded-metric: pKd
value: 9.54
--
binder: IL-2-07 (F42A/Y45A) (ligand, The entry already carries the mutations and C125A and begins with M. Made in E. coli) MAPTSSSTKKTQLQLEHLLLDLQMILNGINNYKNPKLTRMLTAKFAMPKKATELKHLQCLEEELKPLEEVLNLAQSKNFHLRPRDLISNINVIVLELKGSETTFMCEYADETATIVEFLNRWITFAQSIISTLT
recorded-metric: pKd
value: 9.58
--
binder: IL-2-09 (Y45A/L72G) (ligand, The entry already carries the mutations and C125A and begins with M. Made in E. coli) MAPTSSSTKKTQLQLEHLLLDLQMILNGINNYKNPKLTRMLTFKFAMPKKATELKHLQCLEEELKPLEEVLNGAQSKNFHLRPRDLISNINVIVLELKGSETTFMCEYADETATIVEFLNRWITFAQSIISTLT
recorded-metric: pKd
value: 9.46
--
binder: IL-2-04 (L70C/P82C) (ligand, The entry already carries the mutations and C125A and begins with M. Made in E. coli) MAPTSSSTKKTQLQLEHLLLDLQMILNGINNYKNPKLTRMLTFKFYMPKKATELKHLQCLEEELKPLEEVCNLAQSKNFHLRCRDLISNINVIVLELKGSETTFMCEYADETATIVEFLNRWITFAQSIISTLT
recorded-metric: pKd
value: 9.52
--
binder: IL-2-08 (F42A/L72G) (ligand, The entry already carries the mutations and C125A and begins with M. Made in E. coli) MAPTSSSTKKTQLQLEHLLLDLQMILNGINNYKNPKLTRMLTAKFYMPKKATELKHLQCLEEELKPLEEVLNGAQSKNFHLRPRDLISNINVIVLELKGSETTFMCEYADETATIVEFLNRWITFAQSIISTLT
recorded-metric: pKd
value: 9.65
